# experimental-target: PI3-kinase p110-delta/p85-alpha (Homo sapiens)
# Sequence (P27986 whole entry): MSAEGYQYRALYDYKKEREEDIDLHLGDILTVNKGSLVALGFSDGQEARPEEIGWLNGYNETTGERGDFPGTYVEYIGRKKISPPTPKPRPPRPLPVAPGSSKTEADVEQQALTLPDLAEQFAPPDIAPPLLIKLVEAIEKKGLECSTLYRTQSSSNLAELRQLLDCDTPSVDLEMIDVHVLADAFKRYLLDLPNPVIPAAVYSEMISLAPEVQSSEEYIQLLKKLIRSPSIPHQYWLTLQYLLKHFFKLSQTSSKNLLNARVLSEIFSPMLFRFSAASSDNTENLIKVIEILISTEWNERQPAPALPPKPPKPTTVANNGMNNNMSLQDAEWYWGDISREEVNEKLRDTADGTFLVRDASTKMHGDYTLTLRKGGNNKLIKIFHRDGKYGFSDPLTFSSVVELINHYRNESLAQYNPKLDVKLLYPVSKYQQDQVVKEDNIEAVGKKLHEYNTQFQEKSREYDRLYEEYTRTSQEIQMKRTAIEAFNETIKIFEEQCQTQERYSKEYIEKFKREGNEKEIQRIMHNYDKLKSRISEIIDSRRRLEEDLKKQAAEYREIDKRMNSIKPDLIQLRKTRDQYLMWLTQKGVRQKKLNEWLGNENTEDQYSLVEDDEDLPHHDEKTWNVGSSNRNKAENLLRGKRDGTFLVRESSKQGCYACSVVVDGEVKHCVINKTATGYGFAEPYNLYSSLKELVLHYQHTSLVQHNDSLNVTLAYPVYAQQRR
# Sequence (O00329 whole entry): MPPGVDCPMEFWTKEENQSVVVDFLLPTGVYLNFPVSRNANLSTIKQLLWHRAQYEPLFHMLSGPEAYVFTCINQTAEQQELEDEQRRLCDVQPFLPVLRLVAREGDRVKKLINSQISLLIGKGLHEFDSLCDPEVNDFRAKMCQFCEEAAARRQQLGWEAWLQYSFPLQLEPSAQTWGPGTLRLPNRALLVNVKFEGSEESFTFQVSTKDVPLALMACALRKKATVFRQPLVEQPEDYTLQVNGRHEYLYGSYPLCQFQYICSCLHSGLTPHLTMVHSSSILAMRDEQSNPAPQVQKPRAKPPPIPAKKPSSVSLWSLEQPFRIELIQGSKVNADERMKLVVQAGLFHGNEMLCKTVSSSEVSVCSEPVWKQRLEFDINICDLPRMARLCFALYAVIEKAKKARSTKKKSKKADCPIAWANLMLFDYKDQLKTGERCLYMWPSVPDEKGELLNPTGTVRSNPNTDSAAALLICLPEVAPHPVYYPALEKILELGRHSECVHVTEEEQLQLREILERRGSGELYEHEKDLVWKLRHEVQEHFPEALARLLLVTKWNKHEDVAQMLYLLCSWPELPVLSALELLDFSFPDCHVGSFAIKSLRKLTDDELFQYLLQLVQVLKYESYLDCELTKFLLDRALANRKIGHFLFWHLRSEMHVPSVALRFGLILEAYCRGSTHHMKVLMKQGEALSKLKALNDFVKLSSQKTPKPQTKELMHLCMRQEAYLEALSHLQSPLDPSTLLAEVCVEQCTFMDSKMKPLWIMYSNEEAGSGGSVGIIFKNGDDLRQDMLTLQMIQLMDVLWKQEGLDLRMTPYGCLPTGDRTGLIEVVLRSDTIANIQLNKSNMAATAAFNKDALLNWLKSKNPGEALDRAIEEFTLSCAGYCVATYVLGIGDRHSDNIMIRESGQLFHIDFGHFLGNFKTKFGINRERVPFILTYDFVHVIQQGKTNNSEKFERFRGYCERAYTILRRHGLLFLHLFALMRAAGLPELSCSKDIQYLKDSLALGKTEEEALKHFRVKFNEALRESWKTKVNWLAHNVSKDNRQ
# assay-method-text: Inhibition of N-terminal His6-tagged recombinant full length human p110delta/untagged recombinant full length human p85alpha expressed in baculovirus infected Sf21 insect cells using PIP2 as substrate preincubated for 15 mins followed by substrate addition and measured after 1 hr by HTRF assay
Listed here are compounds together with their documented pIC50.
// pIC50 is dimensionless: -log10 of concentration (M)

Examples with their reported pIC50 follow.
{"columns": ["compound", "measurement-kind", "numeric-value"],
 "data": [
  ["CCC(=O)N1CC[C@@H](Nc2ncnc3c2nc(-c2cnn(CC)c2C)n3C)C1", "pIC50", 7.59],
  ["CCn1ncc(-c2nc3c(Oc4csc(C(=O)N5CCOCC5)c4)ncnc3n2C)c1C", "pIC50", 7.17],
  ["CCC(=O)N1CC[C@H](Nc2ncnc3c2nc(-c2cnn(CC)c2C)n3C)C1", "pIC50", 8.80],
  ["CCn1ncc(-c2nc3c(O[C@H]4CCN(C(=O)C5CCOCC5)C4)ncnc3n2C)c1C", "pIC50", 8.41],
  ["CCn1ncc(-c2nc3c(CC4CCN(C(=O)C5CCOCC5)C4)ncnc3n2C)c1C (racemic)", "pIC50", 6.53],
  ["CCC(=O)N1CCC(Nc2ncnc3c2nc(-c2cnn(CC)c2C)n3C)CC1", "pIC50", 6.10],
  ["CCn1ncc(-c2nc3c(NC4CC(=O)N(CC(C)C)C4)ncnc3n2C)c1C (stereo not drawn)", "pIC50", 8.37]
]}

// below: pIC50 requested for another compound
What value of pIC50 has been recorded for this entry: CCn1ncc(-c2nc3c(S[C@H]4CCN(C(=O)C5CCOCC5)C4)ncnc3n2C)c1C 7.82

* * *

# experimental-target: Phosphatidylinositol 4,5-bisphosphate 3-kinase catalytic subunit delta isoform (Homo sapiens, UniProt O00329)
# assay-method-text: Inhibition of PI3Kdelta in human Ramos cells assessed as reduction in anti-IgM-antibody-induced phosphorylation of AKT at Ser473 residue preincubated for 20 mins followed by anti-IgM antibody stimulation and measured after 30 mins by alphascreen assay
# Format: cell-based
measurement-kind: pIC50
Would you please state pIC50, meaning minus log10 of the concentration in mol/L, as a bare number?

Use these answered entries as a reference point.
{"columns": ["molecule", "measurement-kind", "numeric-value"],
 "data": [
  ["CC[C@H](Nc1ncnc2c1nc(-c1cnn(CC)c1C)n2C)C(=O)N(C)C", "pIC50", 5.83],
  ["CCn1ncc(-c2nc3c(N[C@@H](C)C(=O)N4CCOCC4)ncnc3n2C)c1C", "pIC50", 6.14]
]}

Below: the item to evaluate.
What value of pIC50 has been reported for the following molecule? CCn1ncc(-c2nc3c(NC4CC(=O)N(CC(C)C)C4)ncnc3n2C)c1C (stereo not drawn) 7.35

This collection of values is drawn from ChEMBL document CHEMBL4346703.
